Tested on: SK-MEL-5 melanoma
Assay: NCI tumour cell line growth inhibition, 48 h; in the data active means GI50 below about 0.43 µM; inactive means the rest
Your reply should match one of these outcome classes. active, inactive

Request: Just curious, what result did CCN(CC)CCOc1ccc(C2=C(c3ccccc3)CCc3cc(OC)ccc32)cc1 get here?
Response: inactive

Request: Now give it for C#Cc1cccc(Nc2ncnc3ccc(-c4cncc(NS(C)(=O)=O)c4)cc23)c1 too.
Response: inactive

Request: Now give it for C=C(CC1(CC(=C)c2ccc(C(=O)O)cc2)C(=O)N(C)C(=O)N(C)C1=O)c1ccc(C(=O)O)cc1 too.
Response: inactive

Request: Now give it for COc1ncnc2c(-c3ccco3)cn(COCc3ccccc3)c12 too.
Response: inactive

Request: Now give it for COC(=O)C1=C(O)C(C(=O)OC)[C@@]2(O)[C@@H](C(=O)OC)C(c3ccc(OC(=O)C(CC(C)C)NC(C)=O)cc3)C[C@@H]1[C@@H]2C(=O)OC (some centres not stated) too.
Response: inactive

Request: Now give it for C=CC[PH+](c1ccccc1)c1ccccc1.C=CC[PH+](c1ccccc1)c1ccccc1.[Cl][Pt][Cl] too.
Response: inactive

Request: Now give it for Cn1cc(-c2nn3cc(-c4cccs4)nc3s2)c2cc(F)ccc21 too.
Response: inactive

Request: Now give it for CCOC(=O)C1=C(c2ccccc2)N(Cc2ccccc2)C2(O)C=CC(=O)C3C(=O)N(c4ccccc4)C(=O)C132 (configuration not stated) too.
Response: inactive

Request: Now give it for CCOC(=O)Cc1csc(NC(=O)C(OC(=O)c2ccc(N)cc2)c2ccccc2)n1 (configuration not stated) too.
Response: inactive

Request: Now give it for COc1cc(C(=O)/C=C/c2c(C(F)(F)F)nc3sccn23)cc(OC)c1OC too.
Response: inactive

Request: Now give it for C=C(C)[C@]12CC(C)C34OC(/C=C\C=C\CCCCCCCCC)(O[C@@H]1[C@@H]3[C@@H]1O[C@]1(CO)[C@@H](O)[C@]1(O)C(=O)C(C)=C[C@@H]41)O2 (some centres not stated) too.
Response: active

Request: Now give it for OCCCCC#Cc1ccccc1C#Cc1cnccn1 too.
Response: inactive

---

Field: TGI. Provide a value for each of the compounds that follow.
System: RXF 393 renal
Test: NCI tumour cell line growth inhibition, 48 h
Where a SMILES comes first, the peptide text is derived from it. [ ]: non-standard residue; d: D form. The star is where a group is joined. Phe(4-NO2) = N[CH](Cc1ccc([N+](=O)[O-])cc1)C(=O)O; Boc = CC(C)(C)OC(=O)*; OtBu = CC(C)(C)O*

Request: Endpoint output: TGI of CN1C(=O)[C@@]2(C=CC3(CC2)OCCO3)c2ccccc21 . Value?
Response: > 50 µM

Request: Now give it for CSc1nc2c(ncn2C2OCC(O)C(O)C2O)c(=O)[nH]1 (centres undefined) too.
Response: > 100 µM

Request: Now give it for COc1cc2c(cc1OC)[C@H]1C(=O)c3cc4c(cc3[C@H]1N(C)C2=O)OCO4 too.
Response: > 100 µM

Request: Now give it for CC1=CC(c2ccccc2)n2c(nc3cc4ccccc4cc32)N1 (centres undefined) too.
Response: > 100 µM

Request: Now give it for CC1SC2(CCCCC2)N(NC(=O)c2[nH]c3ccc(F)cc3c2-c2ccccc2)C1=O (centres undefined) too.
Response: > 100 µM

Request: Now give it for O=C1N2CCc3c([nH]c4ccccc34)C23CC2CCCC12S3 (centres undefined) too.
Response: > 50 µM

Request: Now give it for CCOP(=O)(OCC)C(F)(F)CC1CCCCC1 too.
Response: > 10 µM

Request: Now give it for COC(=O)C(Cc1ccc([N+](=O)[O-])cc1)NC(=O)C(CC(=O)OC(C)(C)C)NC(=O)OC(C)(C)C (centres undefined) (Boc-Asp(OtBu)-[Phe(4-NO2)]-OMe; configuration not given here) too.
Response: > 100 µM

Request: Now give it for N#CC1(C#N)C2C=CC(C3CCC=C32)C1(C#N)C#N (centres undefined) too.
Response: > 10 µM
